# Test system: NCI-H226 lung
# Method: NCI tumour cell line growth inhibition, 48 h
Value type: TGI

Here's what some known entries look like.
Molecule	TGI
CC1(C)[C@H]2Cc3cc4nc5ccccn5c4cc3[C@@H]1C2	35.4 µM
S=C(S)NCCN1CCNCC1	> 100 µM
C[C@@H](c1ccccc1)N1CO[C@@]2(C#Cc3ccc4c(c3)OCO4)CCC[C@@H]12	38.6 µM
COC(=O)c1c2c(c(C)[n+]([O-])c1C)C(=O)C(NCc1ccc(O)cc1)=CC2=O	4.36 µM
Cn1c(=S)[nH]c(N)c(Cc2ccccc2)c1=O	> 100 µM

Nc1nc(N)c2c(n1)CCC(S(=O)(=O)c1ccc3ccccc3c1)C2 (stereo unspecified) has a reported TGI of > 100 µM

COC(=O)[C@H](Cc1ccccc1)NC(=O)N(CCNC(=O)OC(C)(C)C)c1ccccc1 has a reported TGI of > 100 µM

COc1cc(CC(=O)O)c([N+](=O)[O-])cc1OC has a reported TGI of > 100 µM

CN(C)c1ccc(/C=c2/c3cc(O)ccc3n3c2cc(-c2ccccc2)[n+]3C)cc1 has a reported TGI of > 100 µM

N#CCCN(c1ccc(C=O)cc1)S(=O)(=O)c1ccccc1 has a reported TGI of > 100 µM

C=C(C)CCC(O)[C@](C)(O)[C@H]1[C@H](O)C[C@@]2(C)[C@@H]3CCc4c(cc(OC5OC(CO)C(O)C(O)C5O)c(O)c4C)C3(C)C(=O)C[C@]12C (stereo partly specified) has a reported TGI of > 100 µM

The origin of these recorded values is PubChem BioAssay (NCI).
